experiment: in vitro; details: chlorocebus sabaeus, Vero E6 (Vero C1008) cells, pCC50
readout: CC50 at 48 h (µM)
Lab book: enter the figure in µM, no units written.

>  <molecule>
CNC(=O)[C@@H](c1ccccc1)N1CCc2cc(OC)c(OC)cc2[C@@H]1CCc1ccc(C(F)(F)F)cc1

>  <reading_unit>
µM

>  <experimental_value>
21.4

$$$$

As a next step, examine the molecule that follows.
**Q:** Recorded CC50 at 48 h for COC(=O)C1C2CC3c4[nH]c5cc(OC)ccc5c4CCN3CC2CC(OC(=O)/C=C/c2cc(OC)c(OC)c(OC)c2)C1OC (stereo not drawn) , please?
**A:** 5.5

---

Reported values of CC50 at 48 h for individual entries
test: in vitro; conditions: chlorocebus sabaeus, Vero E6 (Vero C1008) cells, CC50

>  <compound>
O=C(O)CCc1nc(-c2ccccc2)c(-c2ccccc2)o1 [OXAPROZIN]

>  <readout>
CC50 at 48 h

>  <experimental_value>
> 50.1 µM

$$$$
>  <compound>
O=C1c2c(O)cccc2Cc2cccc(O)c21 [ANTHRALIN]

>  <readout>
CC50 at 48 h

>  <experimental_value>
> 100 µM

$$$$
>  <compound>
CCCCCCC(C)(C)c1cc(O)c2c(c1)OC(C)(C)[C@@H]1CC=C(C(=O)O)C[C@@H]21 [LENABASUM]

>  <readout>
CC50 at 48 h

>  <experimental_value>
~21.4 µM

$$$$
>  <compound>
O=c1[nH]c2ccccc2n1CCCN1CCN(C(c2ccccc2)c2ccccc2)CC1 [OXATOMIDE]

>  <readout>
CC50 at 48 h

>  <experimental_value>
~12.6 µM

$$$$
>  <compound>
CC(=O)c1ccc2c(c1)N(CCCN1CCN(CCO)CC1)c1ccccc1S2 [ACETOPHENAZINE]

>  <readout>
CC50 at 48 h

>  <experimental_value>
~14.6 µM

$$$$

**Q:** I am curious: what CC50 at 48 h value has been reported for CCN(CC)Cc1ccc2cc(COC(=O)Nc3ccc(C(=O)NO)cc3)ccc2c1 [GIVINOSTAT] ?
**A:** 0.767 µM

**Q:** Could you share which CC50 at 48 h value was measured for Cc1ccc(C(=O)Oc2ccc(C(O)CNC(C)(C)C)cc2OC(=O)c2ccc(C)cc2)cc1 (stereo not given) [BITOLTEROL] ?
**A:** 5.69 µM

**Q:** Sample CCOC(=O)O[C@]1(C(=O)OCCl)CC[C@H]2[C@@H]3CCC4=CC(=O)C=C[C@]4(C)[C@H]3[C@@H](O)C[C@@]21C [LOTEPREDNOL ETABONATE] — what was its CC50 at 48 h?
**A:** > 20 µM

**Q:** Return reported CC50 at 48 h; argument: CSc1ccc2c(c1)N(CCC1CCCCN1C)c1ccccc1S2 (stereo not given) [THIORIDAZINE]
**A:** ~6.38 µM

**Q:** Recorded CC50 at 48 h of CN1CCC(=C2c3ccccc3Sc3ccccc32)CC1 [PIMETHIXENE] , please.
**A:** 25.7 µM

---

assay: in vitro; settings: chlorocebus sabaeus, Vero E6 (Vero C1008) cells, pCC50
readout: CC50 at 48 h

Worked examples, 3 compounds total:
>  <compound>
CN1[C@@H]2CC[C@H]1CC(OC(c1ccccc1)c1ccccc1)C2 (some centres undefined)

>  <experimental_value>
~46.8 µM

$$$$
>  <compound>
CCC(C)n1ncn(-c2ccc(N3CCN(c4ccc(OCC5COC(Cn6cncn6)(c6ccc(Cl)cc6Cl)O5)cc4)CC3)cc2)c1=O (centres undefined)

>  <experimental_value>
> 100 µM

$$$$
>  <compound>
CCOC(=O)O[C@]1(C(=O)OCCl)CC[C@H]2[C@@H]3CCC4=CC(=O)C=C[C@]4(C)[C@H]3[C@@H](O)C[C@@]21C [LOTEPREDNOL ETABONATE]

>  <experimental_value>
> 20 µM

$$$$

Next item in the queue.
**Q:** Tell me the measured CC50 at 48 h of Cc1[nH]c(/C=C2/C(=O)Nc3ccccc32)c(C)c1CCC(=O)O , please.
**A:** > 50.1 µM
